- Test System: UniProtKB P07858
- Method Description: Drug release assay with cathepsin B
- Assay type: biochemical
- Condition Set: free linker-drug constructs; HPLC at 348 nm; sodium acetate buffer pH 5.0; NH = no hydrolysis; read-out: Cathepsin B t1/2 (time when 50% of the drug is released from linker)
Value Type: half-life at 25 μM
I'd appreciate it if you wrote the number followed by its unit.

Lookup result for COc1cc2ncnc(Nc3ccc(F)c(Cl)c3)c2cc1OCCCNC(=O)CCOCCOCCNC(=O)[C@H](CCCNC(=N)N)NC(=O)[C@H](Cc1ccccc1)NC(=O)CCOCCOCCNC(=O)CCOCCOCCNC(=O)CCOCCOCCNC(=O)CS [Phe-Arg-dPEG2APdMG (4)] ; measured half-life at 25 μM: 1.83 h
